Where these numbers come from: patent US20220185900A1

ASSAY_SYSTEM: human RET on cells (MCF7/SRE-Luc; HEK293/hGFRα3/hRET/SRE-Luc; HEK293/hGFRα1/hRET/SRE-Luc) (human), P07949
ASSAY_INFO: cell-based or functional assay
QUANTITY_NAME: log10 MCF7/SRE-luc Avg. IC50 (log10 of the value in nM)
Scale: log10; quantity: MCF7/SRE-luc Avg. IC50; unit before log: nM

Challenge: Reported log10 MCF7/SRE-luc Avg. IC50 for H4H8058P (antibody, human IgG4, V domains shown) VH: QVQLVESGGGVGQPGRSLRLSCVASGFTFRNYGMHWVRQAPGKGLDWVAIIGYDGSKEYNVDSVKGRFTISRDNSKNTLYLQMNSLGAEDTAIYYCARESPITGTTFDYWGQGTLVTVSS VL: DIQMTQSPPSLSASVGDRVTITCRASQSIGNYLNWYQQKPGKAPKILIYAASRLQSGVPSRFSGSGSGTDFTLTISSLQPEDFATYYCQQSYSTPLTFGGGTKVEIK : what is it?
Response given: 0.73

Challenge: Can you share its log10 MCF7/SRE-luc Avg. IC50? I mean this binder: H4H8076P (antibody, human IgG4, V domains shown) VH: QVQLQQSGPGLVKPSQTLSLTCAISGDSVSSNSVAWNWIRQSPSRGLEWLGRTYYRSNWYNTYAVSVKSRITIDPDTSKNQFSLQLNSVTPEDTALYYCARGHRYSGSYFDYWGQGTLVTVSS VL: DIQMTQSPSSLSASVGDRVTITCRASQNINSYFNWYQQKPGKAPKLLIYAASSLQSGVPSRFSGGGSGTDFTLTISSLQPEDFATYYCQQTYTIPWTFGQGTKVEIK
Response given: 1.75

Challenge: Record request: log10 MCF7/SRE-luc Avg. IC50 value, item H4H8045P (antibody, human IgG4, V domains shown) VH: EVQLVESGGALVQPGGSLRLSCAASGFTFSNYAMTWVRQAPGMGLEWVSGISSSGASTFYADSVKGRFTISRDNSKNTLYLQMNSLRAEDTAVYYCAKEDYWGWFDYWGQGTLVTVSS VL: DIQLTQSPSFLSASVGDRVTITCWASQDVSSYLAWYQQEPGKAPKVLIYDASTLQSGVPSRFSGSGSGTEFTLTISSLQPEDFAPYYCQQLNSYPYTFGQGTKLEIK
Response given: -0.85

Challenge: Request the reported log10 MCF7/SRE-luc Avg. IC50 associated with H4H8067P (antibody, human IgG4, V domains shown) VH: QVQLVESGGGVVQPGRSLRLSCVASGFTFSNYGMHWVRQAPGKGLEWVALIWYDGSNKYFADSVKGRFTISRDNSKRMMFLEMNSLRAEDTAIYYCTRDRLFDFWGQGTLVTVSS VL: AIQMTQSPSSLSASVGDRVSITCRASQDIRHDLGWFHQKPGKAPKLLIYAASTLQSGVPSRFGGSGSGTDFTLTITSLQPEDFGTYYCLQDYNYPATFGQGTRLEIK
Response given: 0.58

Challenge: Requested field: log10 MCF7/SRE-luc Avg. IC50. Item: H4H8087P (antibody, human IgG4, V domains shown) VH: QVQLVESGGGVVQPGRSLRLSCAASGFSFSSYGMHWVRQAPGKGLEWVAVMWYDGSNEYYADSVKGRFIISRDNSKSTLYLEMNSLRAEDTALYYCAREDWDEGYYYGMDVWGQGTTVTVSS VL: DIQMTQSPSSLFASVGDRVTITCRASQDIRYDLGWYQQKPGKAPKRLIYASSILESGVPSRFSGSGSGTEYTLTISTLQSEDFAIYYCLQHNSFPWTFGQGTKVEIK
Response given: -0.60

More entries:
Challenge: Sample H4H8046P (antibody, human IgG4, V domains shown) VH: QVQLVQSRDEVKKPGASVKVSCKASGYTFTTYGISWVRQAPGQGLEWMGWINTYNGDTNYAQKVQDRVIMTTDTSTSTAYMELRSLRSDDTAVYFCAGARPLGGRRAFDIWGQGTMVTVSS VL: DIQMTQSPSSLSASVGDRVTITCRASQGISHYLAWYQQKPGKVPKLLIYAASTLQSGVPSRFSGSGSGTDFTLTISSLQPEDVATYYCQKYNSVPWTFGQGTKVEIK — what was its log10 MCF7/SRE-luc Avg. IC50?
Response given: 1.64

Challenge: Which measured log10 MCF7/SRE-luc Avg. IC50 value corresponds to H4H8084P (antibody, human IgG4, V domains shown) VH: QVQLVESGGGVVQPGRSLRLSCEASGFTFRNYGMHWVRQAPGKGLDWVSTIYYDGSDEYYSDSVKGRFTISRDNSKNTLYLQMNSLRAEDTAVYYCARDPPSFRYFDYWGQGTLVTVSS VL: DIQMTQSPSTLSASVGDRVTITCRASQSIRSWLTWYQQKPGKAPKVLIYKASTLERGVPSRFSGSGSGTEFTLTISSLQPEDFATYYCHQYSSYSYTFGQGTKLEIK ?
Response given: 1.02
